Reference source: ChEMBL document CHEMBL1255328

Please go through the items and note down their MIC.
# Test system: Staphylococcus aureus
# assay.notes: Antimicrobial activity against Staphylococcus aureus RN4220 harboring erm(B) and cfr gene by broth microdilution method
Answers are plain numbers, in mg/L.

Value of MIC reported for the compound CS(=O)(=O)c1ccc([C@@H](O)[C@@H](CF)NC(=O)C(Cl)Cl)cc1 is 128

Moving on to another compound below.
Value of MIC reported for the compound CC[C@H]1OC(=O)C[C@@H](O)[C@H](C)[C@@H](O[C@@H]2O[C@H](C)[C@@H](O[C@H]3C[C@@](C)(O)[C@@H](O)[C@H](C)O3)[C@H](N(C)C)[C@H]2O)[C@@H](CC=O)C[C@@H](C)C(=O)/C=C/C(C)=C/[C@@H]1CO[C@@H]1O[C@H](C)[C@@H](O)[C@@H](OC)[C@H]1OC is 6000

====

# System: Staphylococcus aureus
# assay.notes: Antimicrobial activity against Staphylococcus aureus RN4220 harboring erm(B) and cfr gene by broth microdilution method
Please go through the items and note down their MIC.

Value of MIC reported for the compound CCC[C@@H]1C[C@@H](C(=O)N[C@@H]([C@H]2O[C@H](SC)[C@H](O)[C@@H](O)[C@H]2O)[C@H](C)Cl)N(C)C1 [CLINDAMYCIN] is > 1020 µg/mL

Value of MIC reported for the compound CO[C@@H]1[C@@H](O[C@@H]2O[C@H](C)[C@@H](O[C@H]3C[C@@](C)(O)[C@@H](OC(=O)CC(C)C)[C@H](C)O3)[C@H](N(C)C)[C@H]2O)[C@@H](CC=O)C[C@@H](C)[C@@H](O)/C=C/C=C/C[C@@H](C)OC(=O)C[C@H]1OC(C)=O [JOSAMYCIN] is > 2000 µg/mL

Moving on to another compound below.
Value of MIC reported for the compound CC[C@H]1OC(=O)[C@H](C)[C@@H](O[C@H]2C[C@@](C)(OC)[C@@H](O)[C@H](C)O2)[C@H](C)[C@@H](O[C@@H]2O[C@H](C)C[C@H](N(C)C)[C@H]2O)[C@](C)(O)C[C@@H](C)C(=O)[C@H](C)[C@@H](O)[C@]1(C)O [ERYTHROMYCIN] is > 1020 µg/mL
